# system: Recombinant human cathepsin A (Homo sapiens, UniProt P10619)
# Construct: Recombinant human cathepsin A (residues 29-480, with a C-terminal 10-His tag); 10-His (C); purchased R&D Systems 1049-SE
# Sequence (P10619 29-312 limits assumed): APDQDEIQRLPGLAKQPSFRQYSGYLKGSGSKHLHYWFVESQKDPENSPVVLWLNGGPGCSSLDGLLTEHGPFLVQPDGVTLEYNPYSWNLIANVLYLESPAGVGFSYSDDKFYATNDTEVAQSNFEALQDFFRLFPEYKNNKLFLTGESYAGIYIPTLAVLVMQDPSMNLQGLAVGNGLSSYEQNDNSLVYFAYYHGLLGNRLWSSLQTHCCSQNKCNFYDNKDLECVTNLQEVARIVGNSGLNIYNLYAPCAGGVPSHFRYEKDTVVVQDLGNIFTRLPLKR
# Sequence (P10619 327-480 limits assumed): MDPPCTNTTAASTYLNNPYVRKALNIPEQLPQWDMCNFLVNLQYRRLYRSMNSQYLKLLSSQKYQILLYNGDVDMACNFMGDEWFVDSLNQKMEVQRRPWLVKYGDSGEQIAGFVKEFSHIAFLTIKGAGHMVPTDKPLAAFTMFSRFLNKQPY
# procedure details: Cathepsin A inhibitory activity
# Assay type: biochemical
# test context: read-out: Activity (2): Cathepsin A inhibitory activity, IC50 class
# Excerpt: a) Cathepsin A Inhibitory Activity Recombinant human cathepsin A (residues 29-480, with a C-terminal 10-His tag; R&D Systems, #1049-SE) was proteolytically activated with recombinant human cathepsin L (R&D Systems, #952-CY). […] Uncleaved substrate and product were then separated by a microfluidic capillary electrophoresis on a LabChip® 3000 Drug Discovery System (12-Sipper-Chip; Caliper Life Sciences) and quantified by determination of the respective peak areas. […]
pIC50: −log10 of the molar value.
List of pIC50 values.

[[record]]
compound = "O=C(O)C[C@H](NC(=O)c1cc(O)n(-c2ccc(F)cc2)n1)c1ccc(Cl)cc1 [Example 369]"
observable = "pIC50"
measured_value = "6.00 to 7.00"

[[record]]
compound = "O=C(O)C[C@H](NC(=O)c1cc(O)n(-c2ccccc2)n1)c1ccc(Cl)cc1 [Example 98]"
observable = "pIC50"
measured_value = "6.00 to 7.00"

[[record]]
compound = "O=C(O)C[C@H](NC(=O)c1cc(O)n(-c2ccccc2Cl)n1)c1cccc(F)c1 [Example 393]"
observable = "pIC50"
measured_value = "6.00 to 7.00"

[[record]]
compound = "O=C(O)CC(NC(=O)c1cc(O)n(-c2ccccc2F)n1)c1ccc(-n2ccnc2)cc1 (centres unmarked) [Example 127]"
observable = "pIC50"
measured_value = "4.52 to 6.00"

[[record]]
compound = "O=C(O)C[C@H](NC(=O)c1cc(O)n(-c2ccccc2F)n1)c1ccc(Cl)cc1 [Example 120]"
observable = "pIC50"
measured_value = "6.00 to 7.00"


Q) So what does the record say about pIC50 for N#Cc1ccc([C@H](CC(=O)O)NC(=O)c2cc(O)n(-c3ccc(F)cc3)n2)cc1 [Example 341] ?
A) 6.00 to 7.00

Q) Again, but for COc1ccc([C@H](CC(=O)O)NC(=O)c2cc(O)n(-c3ccccc3F)n2)cn1 [Example 136]
A) 6.00 to 7.00

Q) Again, but for CCc1ccc(C(CC(=O)O)NC(=O)c2cc(O)n(-c3ccc(F)cc3)n2)cc1 (centres unmarked) [Example 363]
A) 6.00 to 7.00

Q) Again, but for O=C(O)C[C@H](NC(=O)c1cc(O)n(-c2ccc(Cl)cc2)n1)c1ccccc1F [Example 293]
A) 4.52 to 6.00

====

# system: Recombinant human cathepsin A (Homo sapiens)
# Construct: Recombinant human cathepsin A (residues 29-480, with a C-terminal 10-His tag); 10-His (C); purchased R&D Systems 1049-SE
# procedure details: Cathepsin A inhibitory activity
# Format: biochemical
# test context: pharmacological test "Cathepsin A inhibitory activity"; IC50 given as class A/B/C; read-out: Activity (2): Cathepsin A inhibitory activity, IC50 class
pIC50: −log10 of the molar value.
observable: pIC50

Some solved cases for reference:
[[record]]
compound = "O=C(O)C[C@H](NC(=O)c1cc(O)n(-c2ccc(F)cc2F)n1)c1ccc(Cl)cc1 [Example 200]"
system = "Recombinant human cathepsin A (Homo sapiens)"
observable = "pIC50"
measured_value = "6.00 to 7.00"

[[record]]
compound = "O=C(O)C[C@H](NC(=O)c1cc(O)n(-c2ccccc2F)n1)c1cccnc1 [Example 140]"
system = "Recombinant human cathepsin A (Homo sapiens)"
observable = "pIC50"
measured_value = "6.00 to 7.00"


Q) So what does the record say about pIC50 for COc1ccccc1[C@@H](NC(=O)c1cc(O)n(-c2ccccc2F)n1)[C@@H](O)C(=O)O [Example 240] ?
A) 4.52 to 6.00

Q) Again, but for COc1ccc(Cl)cc1C(CC(=O)O)NC(=O)c1cc(O)n(-c2ccccc2Cl)n1 (stereo not shown) [Example 209]
A) 6.00 to 7.00

Q) Again, but for O=C(O)CC(NC(=O)c1cc(O)n(-c2ccccc2)n1)c1cccc(Oc2ccc(Cl)cc2)c1 (stereo not shown) [Example 173]
A) 4.52 to 6.00

Q) Again, but for O=C(O)CC(NC(=O)c1cc(O)n(-c2ccccc2)n1)c1ccc(-c2cccc(F)c2)cc1 (stereo not shown) [Example 171]
A) 6.00 to 7.00

Q) Again, but for O=C(O)CC(NC(=O)c1cc(O)n(-c2cccc(Cl)c2)n1)c1cccc(Cl)c1F (stereo not shown) [Example 262]
A) 6.00 to 7.00
